- TARGET OR TEST SYSTEM: T1, recombinant human VTCN1-his protein (human, UniProt Q7Z7D3 25-259, limits assumed)
- T1 construct: also called human VTCN1 protein; recombinant VTCN1
- T1 sequence: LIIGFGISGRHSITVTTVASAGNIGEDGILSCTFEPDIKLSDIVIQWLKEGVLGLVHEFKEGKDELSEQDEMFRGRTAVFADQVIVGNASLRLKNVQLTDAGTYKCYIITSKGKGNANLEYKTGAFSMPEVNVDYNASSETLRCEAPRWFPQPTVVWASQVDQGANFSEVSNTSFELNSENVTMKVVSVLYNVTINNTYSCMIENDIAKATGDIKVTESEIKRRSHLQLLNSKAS
- METHOD SUMMARY: BLI (OCTET), human VTCN1 protein
READOUT KIND: pKd
In plain terms, pKd is the concentration in mol/L turned into minus its base-10 logarithm.

Before answering, review these 2 worked examples.
IN: Given the binder 13H9_44D2 (antibody, V domains shown, Fully human antibody) VH: QVQLQESGPGLVKPSETLSLTCTVSGGSISSYYWSWIRQPPGKGLEWIGYIYYSGSTNNNPSLKSRVTISVDTSKNQFSLKLISVTAADTAVYYCARVYNNYDWGFDYWGQGTLVTVSS VL: EIVMTQSPATLSVSPGERATLSCRASQSVSSNLAWYQQKPGQAPRLLIYGASTRATGIPARFSGSGSGTEFTLTIRSLQSEDFAVYYCQQYHNWPLTFGGGTKLEIK , what is its reported pKd?
OUT: 6.89

IN: Look at this binder and give its reported pKd. 14D6_60B5 (antibody, V domains shown, Fully human antibody) VH: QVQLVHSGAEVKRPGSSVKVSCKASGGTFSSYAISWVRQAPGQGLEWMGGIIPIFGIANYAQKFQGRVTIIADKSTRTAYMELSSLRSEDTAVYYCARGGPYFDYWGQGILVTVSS VL: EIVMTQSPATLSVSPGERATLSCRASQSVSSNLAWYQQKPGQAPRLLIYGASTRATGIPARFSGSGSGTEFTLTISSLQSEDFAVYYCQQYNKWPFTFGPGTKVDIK
OUT: 8.30

Now for a further binder.
IN: Entry 4C7_63A1 (antibody, V domains shown, Fully human antibody) VH: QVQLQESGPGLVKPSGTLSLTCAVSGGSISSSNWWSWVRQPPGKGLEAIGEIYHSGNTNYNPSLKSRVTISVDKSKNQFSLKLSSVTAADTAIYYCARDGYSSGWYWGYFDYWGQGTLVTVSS VL: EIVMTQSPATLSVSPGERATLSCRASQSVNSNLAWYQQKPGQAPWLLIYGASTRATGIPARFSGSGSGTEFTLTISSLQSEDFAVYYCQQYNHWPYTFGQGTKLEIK : reported pKd = ?
OUT: 7.31
